tested on: GH16B β-agarase; experiment: Agarase activity assay (DNS method): effects of metal ions, reducing agent and EDTA on enzymatic activity; format: biochemical, Cellvibrio sp. KY-GH-1; details: 2.5 mM metal ion/chemical; relative to untreated control; mean ± SD (n = 3)
OBSERVATION TYPE: Relative activity (%)

For the compound O=C(O)CN(CCN(CC(=O)O)CC(=O)O)CC(=O)O [EDTA, ethylenediamine tetraacetic acid, reference compound] , give its reported Relative activity (%).
91 (±4.35) %

For the compound [Ca+2].[Cl-].[Cl-] , give its reported Relative activity (%).
103 (±0.90) %

For the compound O=S(=O)([O-])[O-].[Cu+2] , give its reported Relative activity (%).
74%

For the compound O=S(=O)([O-])[O-].[Mn+2] , give its reported Relative activity (%).
156 (±1.90) %

For the compound [Cl-].[K+] , give its reported Relative activity (%).
104 (±3.45) %

For the compound [Cl-].[Na+] , give its reported Relative activity (%).
101 (±2.25) %

For the compound O=C(O)CCP(CCC(=O)O)CCC(=O)O [TCEP, tris(2-carboxyethyl)phosphine, reference compound] , give its reported Relative activity (%).
117 (±6.00) %

For the compound [Cl-].[Cl-].[Mg+2] , give its reported Relative activity (%).
100 (±3.55) %

For the compound [Cl][Mn][Cl] , give its reported Relative activity (%).
155 (±3.00) %

====

tested on: GH16B β-agarase; assay: Agarase activity assay (DNS method): effects of metal ions, reducing agent and EDTA on enzymatic activity; assay type: biochemical, Cellvibrio sp. KY-GH-1; conditions: 0.5 mM metal ion/chemical; relative to untreated control; mean ± SD (n = 3)
Would you kindly list Relative activity (%) for each of these compounds?

For the compound [Cl-].[Na+] , give its reported Relative activity (%).
100 (±0.30) %

For the compound O=C(O)CN(CCN(CC(=O)O)CC(=O)O)CC(=O)O [EDTA, ethylenediamine tetraacetic acid, reference compound] , give its reported Relative activity (%).
95 (±4.75) %

For the compound O=S(=O)([O-])[O-].[Mn+2] , give its reported Relative activity (%).
146 (±1.95) %
